Origin of the recorded values: patent US6706663B2

Tested on: GALAP (Galium aparine)
Test: Postemergence herbicidal evaluation
Format: in vivo
Conditions: rate 0.0620 kg/ha
METRIC_NAME: Postemergence herbicidal rating, GALAP
Write the number on its own, no unit after it.

Exercise: So what Postemergence herbicidal rating, GALAP did Cc1ccsc1-c1nsc2ccc(-n3c(=O)cc(C(F)(F)F)n(C)c3=O)cc12 [Compound 4] get with GALAP (Galium aparine)?
Solution: 6.0

Exercise: And the next one, Cn1c(C(F)(F)F)cc(=O)n(-c2cc3c(-c4ccccn4)nsc3cc2F)c1=O [Compound 25] ?
Solution: 4.0

Exercise: // next record Cn1c(C(F)(F)F)cc(=O)n(-c2ccc3snc(-c4cccs4)c3c2)c1=O [Compound 3]
Solution: 4.0

Exercise: Same lookup for Cc1cccnc1-c1nsc2cc(F)c(N3C(=O)C4=C(CCCC4)C3=O)cc12 [Compound 46] , please.
Solution: 6.0

Exercise: Then Cn1ccnc1-c1nsc2ccc(-n3c(=O)cc(C(F)(F)F)n(C)c3=O)cc12 [Compound 5] ?
Solution: 4.0

Exercise: Note, next up: CCOC(=O)C1CS[C@H](c2nsc3ccc(-n4c(=O)cc(C(F)(F)F)n(C)c4=O)cc23)N1 (some centres unmarked) [Compound 2]
Solution: 6.0

Exercise: What about C[C@H]1OC(c2nsc3ccc(-n4c(=O)cc(C(F)(F)F)n(C)c4=O)cc23)O[C@@H]1C [Compound 48] ?
Solution: 9.0

Exercise: Input C[C@H]1O[C@@H]1c1nsc2ccc(-n3c(=O)cc(C(F)(F)F)n(C)c3=O)cc12 [Compound 14]
Solution: 9.0

---

Test system: ECHCG (Echinochloa crus-galli)
Test: Preemergence herbicidal evaluation
Assay type: in vivo, (L.) Beau
Conditions: Rate 0.0620 kg/ha; rated 4-5 weeks after treatment
METRIC_NAME: Preemergence herbicidal rating ECHCG
Kindly provide the number alone.

Exercise: Which measured Preemergence herbicidal rating ECHCG value corresponds to CC1=CC(C)(C)OC(c2nsc3ccc(-n4c(=O)cc(C(F)(F)F)n(C)c4=O)cc23)C1 (stereo not shown) ?
Solution: 9.0

Exercise: What do we get for "Cn1c(C(F)(F)F)cc(=O)n(-c2cc3c(C4OCCCO4)nsc3cc2F)c1=O" ?
Solution: 9.0

Exercise: Also, "Cn1c(C(F)(F)F)cc(=O)n(-c2ccc3snc(-c4sccc4CBr)c3c2)c1=O" please.
Solution: 0.5

Exercise: Likewise for "C[C@H]1OC(c2nsc3ccc(-n4c(=O)cc(C(F)(F)F)n(C)c4=O)cc23)O[C@@H]1C" ?
Solution: 9.0

Exercise: Now the same for "Cc1cc(C)nc(-c2nsc3ccc(-n4c(=O)cc(C(F)(F)F)n(C)c4=O)cc23)n1"
Solution: 3.0

Exercise: Request: "Cc1cccnc1-c1nsc2cc(F)c(-n3c(=O)cc(C(F)(F)F)n(C)c3=O)cc12"
Solution: 9.0

Exercise: Another: "Cn1c(C(F)(F)F)cc(=O)n(-c2ccc3snc(-c4sccc4Cl)c3c2)c1=O"
Solution: 7.5

Exercise: Now this one: C[C@@H]1C[C@H](C)OC(c2nsc3ccc(-n4c(=O)cc(C(F)(F)F)n(C)c4=O)cc23)O1 (stereo partly shown)
Solution: 9.0

Exercise: "Cc1cnn(-c2nsc3ccc(-n4c(=O)cc(C(F)(F)F)n(C)c4=O)cc23)c1" ?
Solution: 2.0

Exercise: Next record, please: "C=C1COC(c2nsc3ccc(-n4c(=O)cc(C(F)(F)F)n(C)c4=O)cc23)OC1"
Solution: 9.0
